src = patent US20240209001A1

# system: TYK2 (Homo sapiens (Human), UniProt P29597)
# Sequence (P29597 whole entry): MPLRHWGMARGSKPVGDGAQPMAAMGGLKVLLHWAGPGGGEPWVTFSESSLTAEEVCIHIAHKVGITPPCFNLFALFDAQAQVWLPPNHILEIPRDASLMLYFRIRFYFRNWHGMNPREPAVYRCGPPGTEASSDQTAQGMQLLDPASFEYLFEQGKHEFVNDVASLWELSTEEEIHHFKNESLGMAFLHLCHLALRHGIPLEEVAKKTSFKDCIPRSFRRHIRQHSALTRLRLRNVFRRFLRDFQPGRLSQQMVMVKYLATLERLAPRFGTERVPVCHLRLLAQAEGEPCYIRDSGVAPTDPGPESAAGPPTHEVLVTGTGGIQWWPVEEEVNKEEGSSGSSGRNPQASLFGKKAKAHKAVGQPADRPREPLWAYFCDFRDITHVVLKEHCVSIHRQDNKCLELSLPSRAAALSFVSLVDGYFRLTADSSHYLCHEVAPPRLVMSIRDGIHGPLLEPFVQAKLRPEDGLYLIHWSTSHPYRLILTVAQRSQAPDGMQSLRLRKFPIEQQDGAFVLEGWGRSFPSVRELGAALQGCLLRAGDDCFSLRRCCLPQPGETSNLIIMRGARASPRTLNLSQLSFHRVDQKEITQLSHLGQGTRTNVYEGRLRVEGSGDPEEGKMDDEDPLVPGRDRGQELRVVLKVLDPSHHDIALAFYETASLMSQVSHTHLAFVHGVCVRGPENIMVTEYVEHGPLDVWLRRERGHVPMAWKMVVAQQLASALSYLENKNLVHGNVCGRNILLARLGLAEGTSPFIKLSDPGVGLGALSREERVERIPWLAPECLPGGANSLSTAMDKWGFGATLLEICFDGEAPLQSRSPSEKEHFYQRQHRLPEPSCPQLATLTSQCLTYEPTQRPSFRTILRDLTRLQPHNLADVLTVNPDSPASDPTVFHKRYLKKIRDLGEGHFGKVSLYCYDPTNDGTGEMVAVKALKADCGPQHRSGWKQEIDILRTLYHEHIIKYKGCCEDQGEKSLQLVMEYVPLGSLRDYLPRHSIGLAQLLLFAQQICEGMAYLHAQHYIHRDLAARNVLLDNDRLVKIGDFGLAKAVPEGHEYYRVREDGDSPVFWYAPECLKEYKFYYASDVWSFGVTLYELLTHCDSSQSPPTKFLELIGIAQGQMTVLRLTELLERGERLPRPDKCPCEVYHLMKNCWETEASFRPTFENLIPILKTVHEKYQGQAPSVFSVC
# experimentalDetails: Biochemical potency on Tyk2, TR-FRET LANCE Ultra kinase assay (compounds 1-92)
# measurementConditions: ATP at Km, read-out: Tyk2 inhibitory activity (pIC50 class) (converted)
reportedProperty: IC50

Solved entries:
- molSmiles: "COc1cc(NS(C)(=O)=O)ccc1-n1nc(NCCN2CCOCC2)c2cnc(Nc3ncc[nH]c3=O)cc21"
  endpointResult: "≤ 5.01 nM"
- molSmiles: "CCCS(=O)(=O)Nc1ccc(-n2nc(NCCN3CCOCC3)c3cnc(Nc4ncc[nH]c4=O)cc32)c(OC(F)F)c1"
  endpointResult: "5.01 to 50.1 nM"

API: the following record is the query input.
Record CCCS(=O)(=O)Nc1ccc(-n2nc(C(=O)NCCCN(C)C)c3cnc(-c4cnn5cccnc45)cc32)c(OC)c1 . Reported IC50: > 50.1 nM
